Molecular target: T1, HLA-A*02:01 (human)
T1 construct: monomers captured on streptavidin plates; also called MHC class I
Assay: UV peptide exchange ELISA
Text: Candidate peptides for T cell based therapies according to the present invention were further tested for their MHC binding capacity (affinity). The individual peptide-MHC complexes were produced by UV-ligand exchange, where a UV-sensitive peptide is cleaved upon UV-irradiation, and exchanged with the peptide of interest as analyzed. Only peptide candidates that can effectively bind and stabilize the peptide-receptive MHC molecules prevent dissociation of the MHC complexes. […]
outcome-measure: peptide exchange yield

Request the reported peptide exchange yield associated with LVYPLELYPA
50 to 75%

New cases:
Request the reported peptide exchange yield associated with TLDITPHTV
50 to 75%

Request the reported peptide exchange yield associated with LLDSKVPSV
50 to 75%

Request the reported peptide exchange yield associated with NVPDSFNEV
50 to 75%

Request the reported peptide exchange yield associated with QLVPALAKV
20 to 50%

Request the reported peptide exchange yield associated with KMLDGASFTL
50 to 75%
